# Test system: serotonin (5HT) uptake
# assay-notes: [^3 H]-Serotonin Uptake in Rat Whole Brain and Hypothalamic Synaptosomes
# Format: biochemical, rat (male CR Wistar)
# assay-conditions: 50 nM [^3 H]-5HT, 37° C., 5 minutes, read-out: Inhibition of Serotonin Uptake, IC50
Where a name gives a salt, the structure may show the parent alone.
Entries whose IC50 is below 3 µM take Criterion met; entries at or above 3 µM take Criterion not met.

Determine whether this compound shows IC50 lower than 3 µM (ties excluded): NC(=O)c1n[nH]c2nc(N3CCNCC3)ccc12 [hydrochloride hydrate]
Criterion not met

Criterion: IC50 strictly below 3 µM. Is it met by CN1CCN(c2ccc3c(C#N)n[nH]c3n2)CC1 ?
Criterion met

Determine whether this compound shows IC50 lower than 3 µM (ties excluded): N#Cc1n[nH]c2nc(N3CCNCC3)ccc12
Criterion met

For N#Cc1n[nH]c2nc(N3CCCNCC3)ccc12 , is the recorded IC50 below the cut-off of 3 µM?
Criterion met

Is the reported IC50 for CN1CCN(c2ccc3cnn(C)c3n2)CC1 strictly below 3 µM?
Criterion not met

State whether 3 µM exceeds IC50 recorded for CN1CCN(c2ccc3cn[nH]c3n2)CC1 .
Criterion not met
